From: ChEMBL document CHEMBL5046313

assay: Metabolic stability in human liver S9 fraction assessed as half life measured upto 60 mins in presence of NADPH by LC-MS/MS analysis; format: ADME, subcellular
Items are presented alongside their recorded half-life.

Chem smiles: CC1(C)CC(NC(=O)C(/C=C/[C@H](NC(=O)OC(C)(C)C)c2ccc(F)cc2)(Cc2ccc(F)cc2)Cc2ccc(F)cc2)CC(C)(C)N1
half-life, min: 7
--
Chem smiles: CC(C)C[C@@H](/C=C/C(Cc1ccccc1)(Cc1ccccc1)C(=O)NC1CC(C)(C)NC(C)(C)C1)NC(=O)OC(C)(C)C
half-life, min: 7
--
Chem smiles: CC(C)C[C@H](/C=C/C(C)(C)C(=O)NC1CC(C)(C)NC(C)(C)C1)NC(=O)OC(C)(C)C
half-life, min: 7
--
Chem smiles: CC(C)C[C@@H](/C=C/CC(=O)NC1CC(C)(C)NC(C)(C)C1)NC(=O)OC(C)(C)C
half-life, min: 5

###

test: Metabolic stability in mouse liver S9 fraction assessed as half life measured upto 60 mins in presence of NADPH by LC-MS/MS analysis; format: ADME, subcellular
Value kind: half-life

Chem smiles: CC(C)C[C@H](/C=C/C(C)(C)C(=O)NC1CC(C)(C)NC(C)(C)C1)NC(=O)OC(C)(C)C
Result: 3 min
//
Chem smiles: CC(C)C[C@@H](/C=C/CC(=O)NC1CC(C)(C)NC(C)(C)C1)NC(=O)OC(C)(C)C
Result: 9 min
//
Chem smiles: CC1(C)CC(NC(=O)C(/C=C/[C@H](NC(=O)OC(C)(C)C)c2ccc(F)cc2)(Cc2ccc(F)cc2)Cc2ccc(F)cc2)CC(C)(C)N1
Result: 3 min
//
Chem smiles: CC(C)C[C@@H](/C=C/C(Cc1ccccc1)(Cc1ccccc1)C(=O)NC1CC(C)(C)NC(C)(C)C1)NC(=O)OC(C)(C)C
Result: 3 min

###

tested on: HT-1080; assay: Anti-ferroptotic activity against Erastin-induced ferroptosis in human HT-1080 cells assessed as cell activity measured after 24 hrs by Cell Titer-Glo luminescent assay; assay type: functional, cell-based; conditions: HT-1080, 24 h
Checkbox rule: EC50 lower than 600 nM = class 1; EC50 not lower than 600 nM = class 0.

Chem smiles: CC(C)C[C@@H](/C=C/C1(C(=O)NC2CC(C)(C)NC(C)(C)C2)CCOCC1)NC(=O)OC(C)(C)C
Class name: class 0

Chem smiles: CC1(C)CC(NC(=O)C(/C=C/[C@@H](NC(=O)OC(C)(C)C)c2ccoc2)(Cc2ccc(F)cc2)Cc2ccc(F)cc2)CC(C)(C)N1
Class name: class 1

Chem smiles: CC1(C)CC(NC(=O)C(/C=C/[C@@H](NC(=O)OC(C)(C)C)c2ccc(F)cc2)(Cc2ccc(F)cc2)Cc2ccc(F)cc2)CC(C)(C)N1
Class name: class 1

Chem smiles: CC(C)C[C@@H](/C=C/C1(C(=O)NC2CC(C)(C)NC(C)(C)C2)CCCC1)NC(=O)OC(C)(C)C
Class name: class 1

Chem smiles: CC1(C)CC(NC(=O)C(C)(C)/C=C/[C@H](NC(=O)OC(C)(C)C)c2ccccc2)CC(C)(C)N1
Class name: class 1

Chem smiles: CC(C)C[C@@H](/C=C/C(Cc1ccc(F)cc1)(Cc1ccc(F)cc1)C(=O)NC1CC(C)(C)NC(C)(C)C1)NC(=O)OC(C)(C)C
Class name: class 1

Chem smiles: CC1(C)CC(NC(=O)C(/C=C/[C@@H](NC(=O)OC(C)(C)C)c2ccc(F)cc2)(Cc2ccc(F)cn2)Cc2ccc(F)cn2)CC(C)(C)N1
Class name: class 0

Chem smiles: CC(C)C[C@@H](/C=C/C1(C(=O)NC2CC(C)(C)NC(C)(C)C2)CC1)NC(=O)OC(C)(C)C
Class name: class 0

Chem smiles: CC(C)C[C@H](/C=C/C(C)(C)C(=O)NC1CC(C)(C)NC(C)(C)C1)NC(=O)OC(C)(C)C
Class name: class 1

Chem smiles: CC1(C)CC(NC(=O)C/C=C/[C@H](NC(=O)OC(C)(C)C)c2ccccc2)CC(C)(C)N1
Class name: class 0

Chem smiles: CC1(C)CC(NC(=O)C(/C=C/[C@H](NC(=O)OC(C)(C)C)c2ccoc2)(Cc2ccc(F)cc2)Cc2ccc(F)cc2)CC(C)(C)N1
Class name: class 1
